Each item that follows carries a reported GI50.
Test system: NCI-H522
Test: NCI tumour cell line growth inhibition, 48 h
Calls of active or inactive are those of the source. Rule as the data show it: active = GI50 up to about 1.1 µM and inactive = higher.

[
  {
    "compound": "CC12CCC(Br)C(C)(C)C1CC=C1C(=O)OCC1O2 (stereo not given)",
    "GI50": "3.52 µM (inactive)"
  },
  {
    "compound": "CC(=O)OC1COC(Nc2nc(N)n(C)c(=O)c2N=O)C(OC(C)=O)C1OC(C)=O (stereo not given)",
    "GI50": "> 10 µM (inactive)"
  },
  {
    "compound": "COC(=O)CN(CC(=O)NCCCBr)C1CCCCC1N(CC(=O)OC)CC(=O)OC (stereo not given)",
    "GI50": "> 100 µM (inactive)"
  },
  {
    "compound": "Nc1cc2c(cc1[N+](=O)[O-])[nH]c1c(-c3ccccc3)nccc12",
    "GI50": "12 µM (inactive)"
  },
  {
    "compound": "COCC1OC(S(=O)(=O)c2ccccc2)C(O)C(OC)C1OC (stereo not given)",
    "GI50": "> 100 µM (inactive)"
  },
  {
    "compound": "Cc1ncc(CCl)c2c1OC(C)(C)OC2",
    "GI50": "17 µM (inactive)"
  },
  {
    "compound": "COc1ccccc1NC1Oc2cc3c(cc2C(c2cc(OC)c(OC)c(OC)c2)C1C)OCO3 (stereo not given)",
    "GI50": "1.45 µM (inactive)"
  },
  {
    "compound": "CN(C)CCNC(=O)c1cc([N+](=O)[O-])cc2c1Oc1ccccc1O2",
    "GI50": "21.7 µM (inactive)"
  },
  {
    "compound": "[N-]=[N+]=Nc1ccc(CNc2cc(=O)[nH]c(=O)[nH]2)cc1",
    "GI50": "> 100 µM (inactive)"
  },
  {
    "compound": "CC1=C(C(=O)N[C@@H](Cc2ccccc2)C(=O)O)N2C(=O)[C@@H](NC(=O)[C@@H](N)CC(C)C)[C@H]2SC1",
    "GI50": "> 100 µM (inactive)"
  }
]

---

System: ACHN
Assay: NCI tumour cell line growth inhibition, 48 h
The source made the active and inactive calls. Cut-off read from the data, not from the text of the source: active = GI50 up to about 1.1 µM and inactive = higher.
Outcome codes: YES (active), NO (inactive)

[
  {
    "compound": "COc1ccc(C2=NNC(c3cc4cc(Br)ccc4nc3Cl)C2)cc1 (stereo not drawn)",
    "targetOrTestSystem": "ACHN",
    "labelClass": "NO"
  },
  {
    "compound": "COc1cc2ccc(/C=C\\[N+](=O)[O-])cc2cc1OC",
    "targetOrTestSystem": "ACHN",
    "labelClass": "NO"
  },
  {
    "compound": "O=C(Nc1c(Cl)cc([N+](=O)[O-])cc1Cl)C(=O)C1C(=O)NC(=S)NC1=O",
    "targetOrTestSystem": "ACHN",
    "labelClass": "NO"
  },
  {
    "compound": "O=C(O)CCSC1=NCCN1",
    "targetOrTestSystem": "ACHN",
    "labelClass": "NO"
  },
  {
    "compound": "C/C(=C1/N=C(c2cc([N+](=O)[O-])ccc2Cl)N(C2=CC=C(Cl)CC2)C1=O)c1cc2ccccc2oc1=O",
    "targetOrTestSystem": "ACHN",
    "labelClass": "NO"
  },
  {
    "compound": "Cc1c(C(=O)NNc2ccccc2)n2c(S)nnc2c2ccccc12",
    "targetOrTestSystem": "ACHN",
    "labelClass": "NO"
  },
  {
    "compound": "CC(C)Cn1cnc2c(Sc3c([N+](=O)[O-])ncn3C)nc(N)nc21",
    "targetOrTestSystem": "ACHN",
    "labelClass": "NO"
  },
  {
    "compound": "CCOC(=O)/C(=C/c1ccccn1)C(=O)c1ccccc1",
    "targetOrTestSystem": "ACHN",
    "labelClass": "NO"
  },
  {
    "compound": "CC(=O)OC1C(C)OC(OC(=O)C2CCC3C(C2)OC2(CC(OC(=O)/C=C/c4ccccc4)C(C)CO2)C32CO2)C(OC2OC(C)C(O)C(OC(C)=O)C2O)C1O (stereo not drawn)",
    "targetOrTestSystem": "ACHN",
    "labelClass": "YES"
  },
  {
    "compound": "Cc1nc(Nc2ccc(Cl)cc2)sc1C(=O)NNc1ccc([N+](=O)[O-])cc1[N+](=O)[O-]",
    "targetOrTestSystem": "ACHN",
    "labelClass": "NO"
  },
  {
    "compound": "C/C=C(/C)C(=O)O[C@@H]1c2c(C)coc2C[C@H]2CC[C@H](O)[C@H](C)[C@]21C",
    "targetOrTestSystem": "ACHN",
    "labelClass": "NO"
  },
  {
    "compound": "CC1(C)CCC(C)(C)c2cc(NC(=O)c3ccc(C(=O)O)cc3)ccc21",
    "targetOrTestSystem": "ACHN",
    "labelClass": "NO"
  },
  {
    "compound": "CN(C)c1ccc(/C=N/n2c(-c3ccccc3)nc3ccccc3c2=O)cc1",
    "targetOrTestSystem": "ACHN",
    "labelClass": "NO"
  }
]
